- Test system: GENE-TOX genotoxicity assays, various organisms and cells
- TEST DESCRIPTION: GENE-TOX mutagenicity studies
- CONDITION DETAILS: Species/Cell Type: Human; Assay Type: Sister-chromatid exchange (SCE) in vitro; Assay Code: SC1+D; Dose Response: With dose response; Evaluation Type: Evaluation B (Post-1980)
Activity calls are given as the source filed them. The rule behind the calls is not given here.
ASSAY READOUT: mutagenic call

[[record]]
smiles_text = "Cc1c(N)nc(C)c2c1[nH]c1ccccc12"
result = "active; positive"

[[record]]
smiles_text = "O=C(Nc1ccc([N+](=O)[O-])cc1Cl)c1cc(Cl)ccc1O"
result = "active; positive"

[[record]]
smiles_text = "OO"
result = "active; positive"


###

- Tested on: GENE-TOX genotoxicity assays, various organisms and cells
- TEST DESCRIPTION: GENE-TOX mutagenicity studies
- CONDITION DETAILS: Species/Cell Type: Rat; Sex: Male; Assay Type: Sperm morphology; Assay Code: SPA+; Evaluation Type: Evaluation A (Pre-1980)
Activity calls are given as the source filed them. The rule behind the calls is not given here.
ASSAY READOUT: mutagenic call

[[record]]
compound = "COc1ccc2c(c1)CC[C@@H]1[C@@H]2CC[C@]2(C)[C@@H](O)[C@H](O)C[C@@H]12"
measured_on = "GENE-TOX genotoxicity assays, various organisms and cells"
result = "active; positive"

[[record]]
compound = "[Cl][Cd][Cl]"
measured_on = "GENE-TOX genotoxicity assays, various organisms and cells"
result = "active; positive"

[[record]]
compound = "NC1CCCCC1"
measured_on = "GENE-TOX genotoxicity assays, various organisms and cells"
result = "active; positive"

[[record]]
compound = "NC[C@@H]1OC(O[C@H]2[C@@H](O)[C@H](O[C@@H]3[C@@H](O)[C@H](N)C[C@H](N)[C@H]3O[C@H]3O[C@H](CN)[C@@H](O)[C@H](O)[C@H]3N)O[C@@H]2CO)[C@H](N)[C@@H](O)[C@@H]1O (stereo not given in full)"
measured_on = "GENE-TOX genotoxicity assays, various organisms and cells"
result = "active; positive"

[[record]]
compound = "CCC(=O)Oc1ccc2c(c1)CC[C@@H]1[C@@H]2CC[C@]2(C)[C@@H](OC(=O)CC)CC[C@@H]12"
measured_on = "GENE-TOX genotoxicity assays, various organisms and cells"
result = "active; positive"


###

- System: GENE-TOX genotoxicity assays, various organisms and cells
- TEST DESCRIPTION: GENE-TOX mutagenicity studies
- CONDITION DETAILS: Species/Cell Type: Drosophila melanogaster; Assay Type: Sex-linked recessive lethal gene mutation; Assay Code: SRL+; Evaluation Type: Evaluation A (Pre-1980)
Active and inactive are the calls of the source. No rule for the calls is given here.
ASSAY READOUT: mutagenic call

[[record]]
compound = "CN(C)P(=O)(N1CC1)N1CC1"
result = "active; positive"

[[record]]
compound = "O=NN(CCCl)C(=O)NCCO"
result = "active; positive"

[[record]]
compound = "F"
result = "active; positive"

[[record]]
compound = "CNNCc1ccc(C(=O)NC(C)C)cc1"
result = "active; positive"

[[record]]
compound = "Cc1cc(N(CCCl)CCCl)ccc1N=Nc1ccccc1C(=O)O"
result = "active; positive"

[[record]]
compound = "CCN(CC)CCn1nc2c3c(c(C)ccc31)Sc1ccccc1-2"
result = "active; positive"

[[record]]
compound = "CCOC(N)=O"
result = "active; positive"

[[record]]
compound = "CS(=O)(=O)OCCCCO"
result = "active; positive"

[[record]]
compound = "O=C1C=C(N2CC2)C(=O)C(N2CC2)=C1N1CC1"
result = "active; positive"

[[record]]
compound = "C=C/C=C/Cl"
result = "active; positive"

[[record]]
compound = "CC(CNC(=O)N(CCCl)N=O)NC(=O)N(CCCl)N=O (stereo not given)"
result = "active; positive"

[[record]]
compound = "CC(N)=S"
result = "active; positive"

[[record]]
compound = "NC(Cc1ccc(N(CCCl)CCCl)cc1)C(=O)O (stereo not given)"
result = "active; positive"

[[record]]
compound = "O=NN(CCCl)C(=O)NC(NC(=O)N(CCCl)N=O)(c1ccccc1)c1ccccc1"
result = "active; positive"

[[record]]
compound = "N[C@H](Cc1ccc(N(CCCl)CCCl)cc1)C(=O)O"
result = "active; positive"


###

- System: GENE-TOX genotoxicity assays, various organisms and cells
- TEST DESCRIPTION: GENE-TOX mutagenicity studies
- CONDITION DETAILS: Species/Cell Type: Nonhuman; Assay Type: Sister-chromatid exchange (SCE) in vitro; Assay Code: SC2+D; Dose Response: With dose response; Evaluation Type: Evaluation B (Post-1980)
Active and inactive are the calls of the source. No rule for the calls is given here.
ASSAY READOUT: mutagenic call

[[record]]
compound = "O[C@@H]1C=Cc2c(ccc3cc4ccccc4cc23)[C@H]1O"
measured_on = "GENE-TOX genotoxicity assays, various organisms and cells"
result = "active; positive"

[[record]]
compound = "O=P(N1CC1)(N1CC1)N1CC1"
measured_on = "GENE-TOX genotoxicity assays, various organisms and cells"
result = "active; positive"

[[record]]
compound = "Cc1ccc2c(c1O)N[C@H](O)[C@@H]1CC(/C=C/C(N)=O)=CN1C2=O"
measured_on = "GENE-TOX genotoxicity assays, various organisms and cells"
result = "active; positive"

[[record]]
compound = "Cc1cc2ccccc2c2cc3ccccc3cc12"
measured_on = "GENE-TOX genotoxicity assays, various organisms and cells"
result = "active; positive"

[[record]]
compound = "CCOP(=O)(OCC)Oc1ccc([N+](=O)[O-])cc1"
measured_on = "GENE-TOX genotoxicity assays, various organisms and cells"
result = "active; positive"

[[record]]
compound = "NNCCO"
measured_on = "GENE-TOX genotoxicity assays, various organisms and cells"
result = "active; positive"

[[record]]
compound = "O[C@@H]1C=Cc2cc3ccc4ccccc4c3cc2[C@H]1O"
measured_on = "GENE-TOX genotoxicity assays, various organisms and cells"
result = "active; positive"

[[record]]
compound = "O=CONC(=O)c1ccc2ccccc2c1"
measured_on = "GENE-TOX genotoxicity assays, various organisms and cells"
result = "active; positive"

[[record]]
compound = "NCCS"
measured_on = "GENE-TOX genotoxicity assays, various organisms and cells"
result = "active; positive"

[[record]]
compound = "CCCCOc1ccc(CC(=O)NOC=O)cc1"
measured_on = "GENE-TOX genotoxicity assays, various organisms and cells"
result = "active; positive"

[[record]]
compound = "CNNC"
measured_on = "GENE-TOX genotoxicity assays, various organisms and cells"
result = "active; positive"

[[record]]
compound = "CO[C@@]12[C@H](COC(N)=O)C3=C(C(=O)C(C)=C(N)C3=O)N1C[C@H]1[C@@H]2N1C (some centres undefined)"
measured_on = "GENE-TOX genotoxicity assays, various organisms and cells"
result = "active; positive"

[[record]]
compound = "NN"
measured_on = "GENE-TOX genotoxicity assays, various organisms and cells"
result = "active; positive"

[[record]]
compound = "Cc1c2ccccc2cc2ccc3ccccc3c12"
measured_on = "GENE-TOX genotoxicity assays, various organisms and cells"
result = "active; positive"


###

- System: GENE-TOX genotoxicity assays, various organisms and cells
- TEST DESCRIPTION: GENE-TOX mutagenicity studies
- CONDITION DETAILS: Species/Cell Type: Mammalian polychromatic erythrocytes; Assay Type: Micronucleus test, chromosome aberrations; Assay Code: MNTT; Evaluation Type: Evaluation A (Pre-1980)
ASSAY READOUT: mutagenic call

[[record]]
smiles_text = "CNNC"
measured_on = "GENE-TOX genotoxicity assays, various organisms and cells"
result = "no conclusion"

[[record]]
smiles_text = "O=C1CCCO1"
measured_on = "GENE-TOX genotoxicity assays, various organisms and cells"
result = "no conclusion"

[[record]]
smiles_text = "COc1cc2c(c(OC)c1OC)-c1ccc(OC)c(=O)cc1[C@@H](NC(C)=O)CC2"
measured_on = "GENE-TOX genotoxicity assays, various organisms and cells"
result = "no conclusion"


###

- Test system: GENE-TOX genotoxicity assays, various organisms and cells
- TEST DESCRIPTION: GENE-TOX mutagenicity studies
- CONDITION DETAILS: Species/Cell Type: Rat primary hepatocytes; Assay Type: Unscheduled DNA synthesis (UDS) in vitro, DNA effects; Assay Code: UDP+D; Dose Response: With dose response; Evaluation Type: Evaluation A (Pre-1980)
Activity calls are given as the source filed them. How the calls were made is not given here.
ASSAY READOUT: mutagenic call

[[record]]
smiles_text = "Clc1ccc(N=Nc2ccc(Cl)c(Cl)c2)cc1Cl"
result = "active; positive"

[[record]]
smiles_text = "O=NN1CCCC1"
result = "active; positive"

[[record]]
smiles_text = "CN(CCCC(=O)c1cccnc1)N=O"
result = "active; positive"

[[record]]
smiles_text = "Cc1ccc2cc3c(ccc4ccccc43)c3c2c1CC3"
result = "active; positive"

[[record]]
smiles_text = "Cc1cccc(N=Nc2ccc(N(C)C)cc2)c1"
result = "active; positive"

